Target or test system: UniProt:P21397
Sequence (P21397 1-527): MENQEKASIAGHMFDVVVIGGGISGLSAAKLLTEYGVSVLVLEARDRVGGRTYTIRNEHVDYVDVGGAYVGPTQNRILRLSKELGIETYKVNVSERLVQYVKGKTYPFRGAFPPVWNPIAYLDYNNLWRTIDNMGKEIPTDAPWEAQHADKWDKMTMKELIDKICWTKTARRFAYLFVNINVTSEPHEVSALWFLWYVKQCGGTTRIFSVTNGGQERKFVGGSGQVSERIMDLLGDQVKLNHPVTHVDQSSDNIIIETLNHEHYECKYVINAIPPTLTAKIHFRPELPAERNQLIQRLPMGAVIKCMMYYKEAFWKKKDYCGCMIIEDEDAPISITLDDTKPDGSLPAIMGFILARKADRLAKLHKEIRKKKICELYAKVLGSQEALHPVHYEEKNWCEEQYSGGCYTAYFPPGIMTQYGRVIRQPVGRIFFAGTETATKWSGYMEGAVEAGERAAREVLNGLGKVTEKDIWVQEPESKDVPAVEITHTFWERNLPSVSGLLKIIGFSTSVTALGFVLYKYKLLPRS
Readout label: pIC50
As a rule, pIC50 stands for the negative log10 of the concentration, concentration in M.

                                smiles_code  recorded_measurement
0  COc1cccc2cc(/C(C)=N/NC(=O)c3ccccc3Br)c(=O)oc12                  5.69
1  COc1cccc2cc(/C(C)=N/NC(=O)c3ccccc3C)c(=O)oc12                  5.76
2  COc1cccc2cc(/C(C)=N/NC(=O)c3ccco3)c(=O)oc12                  5.40
3  COc1cccc2cc(/C(C)=N/NC(=O)c3ccccc3Cl)c(=O)oc12                  5.72
4  COc1cccc2cc(/C(C)=N/NC(=O)Cn3ccc4cccnc43)c(=O)oc12                  5.71
5  COc1cccc2cc(/C(C)=N/NC(=O)Cc3ccccc3)c(=O)oc12                  5.73
6  COc1cccc2cc(/C(C)=N/NC(=O)c3ccc(C(F)(F)F)cc3)c(=O)oc12                  5.82
7  COc1cccc2cc(/C(C)=N/NC(=O)c3cccc4[nH]ccc34)c(=O)oc12                  5.68

Jot down pIC50 (UniProt:P21397) of "COc1cccc2cc(/C(C)=N/NC(=O)c3ccc(F)cc3)c(=O)oc12" .
5.74

---

Reported Ki by item:
Target or test system: Butyrylcholinesterase from equine serum (Equus caballus)
Measurement notes: BChE inhibition, modified colorimetric Ellman method
Respond numerically; units are µM and should not be typed.

                                   compound  readout_units  recorded_measurement
0  COc1cccc2cc(/C(C)=N/NC(=O)c3ccccn3)c(=O)oc12 [Compound 3l]             µM                    69
1  COc1cccc2cc(/C(C)=N/NC(=O)c3ccccc3Cl)c(=O)oc12 [Compound 3m]             µM                  71.4
2  COc1cccc2cc(/C(C)=N/NC(=O)c3ccco3)c(=O)oc12 [Compound 3f]             µM                  68.5

Output measured Ki for this item: COc1cccc2cc(/C(C)=N/NC(=O)c3ccccc3C)c(=O)oc12 [Compound 3d]
69.9

---

Target or test system: Acetylcholinesterase from Electrophorus electricus (electric eel) (Electrophorus electricus, UniProt O42275)
Sequence (O42275 24-633): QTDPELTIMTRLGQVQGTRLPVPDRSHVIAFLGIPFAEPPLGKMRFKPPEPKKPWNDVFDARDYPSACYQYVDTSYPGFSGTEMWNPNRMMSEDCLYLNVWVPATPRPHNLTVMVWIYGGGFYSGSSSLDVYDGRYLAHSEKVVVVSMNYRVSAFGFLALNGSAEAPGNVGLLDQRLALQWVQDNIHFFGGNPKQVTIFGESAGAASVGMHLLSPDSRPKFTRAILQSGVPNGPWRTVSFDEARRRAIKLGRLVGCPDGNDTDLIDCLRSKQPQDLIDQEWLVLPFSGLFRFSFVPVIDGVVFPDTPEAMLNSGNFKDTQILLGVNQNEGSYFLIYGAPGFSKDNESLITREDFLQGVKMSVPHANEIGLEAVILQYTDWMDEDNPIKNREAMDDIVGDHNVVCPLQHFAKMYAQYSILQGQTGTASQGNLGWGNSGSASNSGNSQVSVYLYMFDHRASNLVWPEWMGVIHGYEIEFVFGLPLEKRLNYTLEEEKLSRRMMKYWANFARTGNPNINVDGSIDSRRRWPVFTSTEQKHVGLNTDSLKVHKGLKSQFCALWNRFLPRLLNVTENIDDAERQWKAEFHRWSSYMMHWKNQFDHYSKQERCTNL
Readout label: Ki (µM)
Just the number in µM, nothing appended.

In [3]: df
Out[3]:
                                   compound  readout_label  readout_units  recorded_measurement
0  COc1cccc2cc(/C(C)=N/NC(=O)c3ccc(C(F)(F)F)cc3)c(=O)oc12 [Compound 3e]             Ki             µM                  7.38

Consider the compound COc1cccc2cc(/C(C)=N/NC(=O)c3cc4ccccc4cc3O)c(=O)oc12 [Compound 3a] and give its recorded Ki.
6.03

Answer with the recorded Ki of COc1cccc2cc(/C(C)=N/NC(=O)c3ccccc3Br)c(=O)oc12 [Compound 3c] only.
11.3

Read the entry COc1cccc2cc(/C(C)=N/NC(=O)Cc3ccccc3)c(=O)oc12 [Compound 3i] and write its reported Ki.
15.4

---

Catalogue of pIC50 readings, one per entry.
Target or test system: Butyrylcholinesterase from equine serum (Equus caballus)
Measurement notes: BChE inhibition, modified colorimetric Ellman method
For clarity, pIC50 is expressed as the negative log10 of concentration in mol/L.

                                smiles_code                     target_or_test_system  readout_label  recorded_measurement
0  COc1cccc2cc(/C(C)=N/NC(=O)c3ccc(C(F)(F)F)cc3)c(=O)oc12  Butyrylcholinesterase from equine serum (Equus caballus)          pIC50                  4.18
1  COc1cccc2cc(/C(C)=N/NC(=O)c3ccc(F)cc3)c(=O)oc12  Butyrylcholinesterase from equine serum (Equus caballus)          pIC50                  4.15
2  COc1cccc2cc(/C(C)=N/NC(=O)c3cccc4[nH]ccc34)c(=O)oc12  Butyrylcholinesterase from equine serum (Equus caballus)          pIC50                  4.09
3  COc1cccc2cc(/C(C)=N/NC(=O)Cc3ccccc3)c(=O)oc12  Butyrylcholinesterase from equine serum (Equus caballus)          pIC50                  4.10
4  COc1cccc2cc(/C(C)=N/NC(=O)c3cccc(Cl)c3)c(=O)oc12  Butyrylcholinesterase from equine serum (Equus caballus)          pIC50                  4.07

Fill in reported pIC50 for this entry: "COc1cccc2cc(/C(C)=N/NC(=O)c3cc4ccccc4cc3O)c(=O)oc12"
4.13

Give a short answer stating reported pIC50 for "COc1cccc2cc(/C(C)=N/NC(=O)c3ccco3)c(=O)oc12" .
4.11

---

Reported IC50 by item:
Target or test system: Butyrylcholinesterase from equine serum (Equus caballus, UniProt P81908)
Sequence (P81908 whole entry): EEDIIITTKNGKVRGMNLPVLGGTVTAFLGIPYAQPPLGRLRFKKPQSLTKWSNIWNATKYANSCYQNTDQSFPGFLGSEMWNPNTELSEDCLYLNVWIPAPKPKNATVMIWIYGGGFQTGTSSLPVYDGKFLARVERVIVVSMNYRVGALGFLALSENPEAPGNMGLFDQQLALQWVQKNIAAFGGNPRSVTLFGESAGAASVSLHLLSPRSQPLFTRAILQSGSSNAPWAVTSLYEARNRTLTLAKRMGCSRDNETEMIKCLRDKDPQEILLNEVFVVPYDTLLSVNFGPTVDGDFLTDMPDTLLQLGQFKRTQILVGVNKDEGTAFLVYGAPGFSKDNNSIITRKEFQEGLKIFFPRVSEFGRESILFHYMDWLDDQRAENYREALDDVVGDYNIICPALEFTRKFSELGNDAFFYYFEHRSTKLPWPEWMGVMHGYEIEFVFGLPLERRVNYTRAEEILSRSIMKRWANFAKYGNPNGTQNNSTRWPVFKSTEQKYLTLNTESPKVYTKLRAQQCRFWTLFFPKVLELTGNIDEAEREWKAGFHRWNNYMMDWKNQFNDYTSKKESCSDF
Measurement notes: BChE inhibition, modified colorimetric Ellman method
Use µM as the unit, but write only the number.

>>> df
                                smiles_code  recorded_measurement
0  COc1cccc2cc(/C(C)=N/NC(=O)c3ccccn3)c(=O)oc12                    75

Tell me measured IC50 for "COc1cccc2cc(/C(C)=N/NC(=O)c3ccccc3C)c(=O)oc12" please.
90.1

Please give the documented IC50 of "COc1cccc2cc(/C(C)=N/NC(=O)c3ccccc3Cl)c(=O)oc12"
82.3

Data origin, for the record: paper PMC12647218
